# Tested on: CCRIS mutagenicity, Ames/micronucleus/aberration tests
# Assay comment: CCRIS mutagenicity studies
# Condition: Test System: AMES SALMONELLA TYPHIMURIUM; Strain/Indicator: TA98; Metabolic Activation: RAT, LIVER, S-9, AROCLOR 1254; Method: PREINCUBATION
The source made the active and inactive calls. No rule for the calls is given here.
Assay endpoint: mutagenic call

Here are 6 molecules together with their reported answers.
Smi | Result
OCCNc1ccc(N=Nc2ccc(NCCO)cc2)cc1 | active; positive
CC(=O)C=O | inactive; negative
Cc1cnc2c(ccc3c2nc(N)n3C)n1 | active; positive
Cn1c(NS(=O)(=O)O)nc2c3nc(CO)cnc3ccc21 | inactive; negative
Cn1cccc1 | inactive; negative
CC1=CC(=O)C=C2CC[C@@H]3[C@H](CC[C@]4(C)C(=O)CC[C@@H]34)[C@@]12C | inactive; negative

Exercise: Return the recorded mutagenic call value; entry: "CC(=O)C(C)=O"
Key: inactive; negative

Exercise: Return the recorded mutagenic call value; entry: "Nc1c(Br)cc(Br)c2c1C(=O)c1ccccc1C2=O"
Key: inactive; negative

Exercise: Return the recorded mutagenic call value; entry: "Nc1cc2c3c(ccc2c2ccccc12)[C@H](O)[C@@H](O)C=C3"
Key: inactive; negative

Exercise: Return the recorded mutagenic call value; entry: "Cc1ccc(C)cc1"
Key: inactive; negative

Exercise: Return the recorded mutagenic call value; entry: "c1ccsc1"
Key: inactive; negative

Exercise: Return the recorded mutagenic call value; entry: "O=S(=O)(O)Oc1ccc2ccc3cc4ccccc4c4ccc1c2c34"
Key: active; positive

Exercise: Return the recorded mutagenic call value; entry: "Nc1nc2ccc(O)cc2[nH]1"
Key: active; positive

Exercise: Return the recorded mutagenic call value; entry: "O=C(CCl)NCO"
Key: inactive; negative

---

# Tested on: CCRIS mutagenicity, Ames/micronucleus/aberration tests
# Assay comment: CCRIS mutagenicity studies
# Condition: Test System: AMES SALMONELLA TYPHIMURIUM; Strain/Indicator: TA1537; Metabolic Activation: RAT, LIVER, S-9, KC 500; Method: PREINCUBATION
Active and inactive are the calls of the source. How the calls were made is not given here.
Assay endpoint: mutagenic call

Here are 5 compounds together with their reported answers.
Smi | mutagenic call
Cl | inactive; negative
Cc1ccc(C)cc1 | inactive; negative
C1N2CN3CN1CN(C2)C3 | inactive; negative
O=c1n(Cl)c(=O)n(Cl)c(=O)n1Cl | inactive; negative
OCC(O)CO | inactive; negative

Now for another entry.
Exercise: Return the recorded mutagenic call value; entry: "CC(C)CO"
Key: inactive; negative

---

# Test system: CCRIS mutagenicity, Ames/micronucleus/aberration tests
# Assay comment: CCRIS mutagenicity studies
# Condition: Test System: E. COLI; Strain/Indicator: WP2 UVRA; Metabolic Activation: NONE; Method: STANDARD PLATE
Active and inactive are the calls of the source. How the calls were made is not given here.
Tick one outcome: 1.0 = active, 0.0 = inactive

Compound | Assigned label
CN(C)C(=O)Nc1cccc(C(F)(F)F)c1 | 0.0
Cc1cccc(C2CO2)c1 (stereo not drawn) | 1.0
CCOC(=O)CC1OCCc2c1[nH]c1c(CC)c(O)ccc21 (stereo not drawn) | 0.0
OC[C@@H](O)[C@@H](O)CO | 0.0

Exercise: Entry "Cc1ccccc1N=Nc1ccc(N(C)C)cc1" : call = ?
Key: 0.0

Exercise: Entry "[N-]=[N+]=[N-]" : call = ?
Key: 0.0

Exercise: Entry "NC[C@H]1CCCN1.O=C([O-])C1(C(=O)[O-])CCC1.[Pt+2]" : call = ?
Key: 0.0

Exercise: Entry "O=C(O)CN(CC(=O)O)CC(=O)O" : call = ?
Key: 0.0

Exercise: Entry "CS(C)=O" : call = ?
Key: 1.0

Exercise: Entry "CC/C(=C(/CC)c1ccc(O)cc1)c1ccc(O)cc1" : call = ?
Key: 0.0

Exercise: Entry "Nc1ccc2cc3ccccc3cc2c1" : call = ?
Key: 0.0

Exercise: Entry "[Cl][Cd][Cl]" : call = ?
Key: 1.0
